Every entry's value here was drawn from PubChem BioAssay (NCI).

system: SNB-19 CNS; experiment: NCI-60 one-dose screen, 48 h (100 = growth as untreated, 0 = no growth, -100 = all killed); settings: 10 µM
Compounds without any hit were thinned out: in the full panel of roughly 83,000, 20% have a hit.
just bin them by growth: lo (below 30%), mid (30% to below 50%), hi (50% or more)

{"COMPOUND": "CC1(C)CC[C@]2(C(=O)O)CC[C@]3(C)C(=CCC4[C@@]5(C)C[C@@H](O)[C@@H]6OC(c7cccc(F)c7)OC[C@@]6(C)C5CC[C@]43C)C2C1 (stereo partly drawn)", "CLASS NAME": "mid"}
{"COMPOUND": "C#CCOc1cc(N(CC)CC)ccc1C(C(=O)NC(C)(C)C)N(C(=O)C1CCc2cc(F)ccc2O1)c1ccc(F)cc1F (stereo not drawn)", "CLASS NAME": "mid"}
{"COMPOUND": "C#C[C@]1(O)CC[C@H]2[C@@H]3CC=C4c5sc(Nc6ccc(C(F)(F)F)cn6)nc5CC[C@]4(C)[C@H]3CC[C@@]21C", "CLASS NAME": "lo"}
{"COMPOUND": "Cc1cc(N=C2NC(=O)/C(=C/c3cc(C(C)(C)C)c(O)c(C(C)(C)C)c3)S2)n[nH]1", "CLASS NAME": "lo"}
{"COMPOUND": "CC1(C)CC(=O)C2=C(C1)N(Cc1ccc(C(=O)O)cc1)C1=C(C(=O)CC(C)(C)C1)C2c1ccc(Cl)cc1", "CLASS NAME": "hi"}
{"COMPOUND": "COc1ccc(OC)c(-n2cc(C#N)c(N)c2C(=O)c2ccc(Cl)cc2Cl)c1", "CLASS NAME": "mid"}
{"COMPOUND": "Cc1ccc(COc2ccc(NC(=O)Nc3ccc(Cl)c(C(F)(F)F)c3)cc2)cc1", "CLASS NAME": "hi"}
{"COMPOUND": "COc1cc(Nc2nc(O)c(/C=C3\\C=Nc4ccccc43)s2)cc(OC)c1OC", "CLASS NAME": "lo"}
{"COMPOUND": "O=C(CC(=O)Nc1ccc(Oc2ncnc3scc(Nc4n[nH]c(=S)s4)c23)cc1)Nc1ccc(Br)cc1", "CLASS NAME": "hi"}
{"COMPOUND": "COc1cc(-c2nc3ccc(C)cc3[nH]2)ccc1OCc1nnc(-c2ccccc2Br)o1", "CLASS NAME": "hi"}
{"COMPOUND": "COc1cc2oc(-c3cccc(C(=O)Nc4ccc(Cl)cc4)c3)cc(=O)c2c(OCCN)c1OC", "CLASS NAME": "lo"}
{"COMPOUND": "Cn1cc(-c2nc(N)nnc2-c2c[nH]c3ccccc23)c2cc(Br)cnc21", "CLASS NAME": "mid"}
{"COMPOUND": "COc1ccc(C(=O)COc2ccc(NC(=O)Nc3ccc(Cl)c(C(F)(F)F)c3)cc2)cc1", "CLASS NAME": "lo"}
{"COMPOUND": "COc1ccc(Cn2cc(C#N)c(N)c2C(C)=O)c(OC)c1", "CLASS NAME": "hi"}
{"COMPOUND": "Nc1nnc(-c2c[nH]c3ncc(Br)cc23)c(-c2c[nH]c3ccc(Br)cc23)n1", "CLASS NAME": "mid"}
